study target: DSTYK (human)
assay details: radiometric filter-binding kinase assay, Kinase HotSpot
experimental setup: compound 0.5 µM; ATP 10 µM
List of residual activity values.
measurement type: residual activity (%)

COc1cc2ncc(-c3ccccc3)nc2cc1OC : 82.7
CN([C@@H](Cc1ccc(OS(=O)(=O)c2cccc3cnccc23)cc1)C(=O)N1CCN(c2ccccc2)CC1)S(=O)(=O)c1cccc2cnccc12 : 97.4
O=C1NC(=O)C(c2c[nH]c3ccccc23)=C1c1c[nH]c2ccccc12 : 99.6
O=C(Nc1cccc(Nc2cc(Nc3cccc(C(F)(F)F)c3)ncn2)c1)C1CC1 : 102
CC(C)c1nn(-c2c(Cl)cccc2Cl)c2nc(Cc3ccc(OCCO)cc3)nc(O)c12 : 93.1
Cn1cnc2cc3c(Nc4cccc(Br)c4)ncnc3cc21 : 97.5
O=C1Nc2ccccc2/C1=C1/Nc2ccccc2/C1=N\OCCC(O)CO (stereo unspecified) : 104
Cn1nc2c3c(cccc31)C(=O)c1ccccc1-2 : 101
O=C(O)/C=C/c1cc(Br)c(Br)c(Br)c1Br : 98.2
COc1cc2ncnc(N3CCN(C(=O)Nc4ccc(Oc5ccccc5)cc4)CC3)c2cc1OC : 113
Nc1nccc(-c2c(-c3ccc(F)cc3)ncn2C2CCNCC2)n1 : 102
Cn1sc(=O)n(Cc2ccccc2)c1=O : 92.9
CCn1cnc2c(Nc3cccc(Cl)c3)nc(N[C@@H]3CCCC[C@@H]3N)nc21 : 97.8
O=C(CCCc1ccc(-c2ccccc2F)cc1)Nc1ccc(O)cc1 : 103
Oc1ccc(Nc2nc(-c3ccc(Cl)cc3)cs2)cc1 : 104
CN(C)C[C@H]1CCn2c(c(C3=C(c4cn(C)c5ccccc45)C(=O)NC3=O)c3ccccc32)C1 : 89.4
CCN(CC)CCCCN1c2ccccc2Oc2ccc(Cl)cc21 : 106
O=C1NC(=O)/C(=C\c2ccc3nccnc3c2)S1 : 89.9
COc1ccc(OC)c2c(=S)c3ccccc3[nH]c12 : 91.3
COc1ccc(CNC(=O)Nc2ncc([N+](=O)[O-])s2)cc1 : 96.2
O=C1NC(=O)C(c2cn(CCCO)c3ncccc23)=C1c1cnccn1 : 78

* * *

study target: UniProt Q8N568
Sequence (Q8N568 whole entry, looked up): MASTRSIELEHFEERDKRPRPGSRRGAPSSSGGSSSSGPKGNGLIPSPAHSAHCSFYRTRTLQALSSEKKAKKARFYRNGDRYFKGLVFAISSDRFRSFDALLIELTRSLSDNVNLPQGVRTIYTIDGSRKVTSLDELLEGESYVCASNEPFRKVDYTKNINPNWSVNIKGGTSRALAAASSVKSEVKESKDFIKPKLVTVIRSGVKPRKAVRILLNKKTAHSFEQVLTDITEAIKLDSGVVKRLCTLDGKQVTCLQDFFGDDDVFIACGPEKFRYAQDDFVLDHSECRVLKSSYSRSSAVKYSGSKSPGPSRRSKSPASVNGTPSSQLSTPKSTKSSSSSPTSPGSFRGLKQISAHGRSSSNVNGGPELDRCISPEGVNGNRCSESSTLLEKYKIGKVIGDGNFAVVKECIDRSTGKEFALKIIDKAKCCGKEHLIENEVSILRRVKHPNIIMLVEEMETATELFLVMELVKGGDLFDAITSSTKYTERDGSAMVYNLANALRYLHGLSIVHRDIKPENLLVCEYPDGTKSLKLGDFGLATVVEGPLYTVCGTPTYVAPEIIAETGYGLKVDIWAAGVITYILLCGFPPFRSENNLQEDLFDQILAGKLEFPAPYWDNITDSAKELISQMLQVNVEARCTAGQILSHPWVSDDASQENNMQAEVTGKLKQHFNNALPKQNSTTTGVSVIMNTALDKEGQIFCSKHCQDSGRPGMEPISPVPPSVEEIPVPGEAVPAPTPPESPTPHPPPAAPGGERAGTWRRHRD
assay details: radiometric filter-binding kinase assay, Kinase HotSpot
experimental setup: compound 0.5 µM; ATP 10 µM
This section presents compounds with their documented residual activity values.
measurement type: residual activity (%)

O=C1Nc2ccccc2/C1=C1\Nc2ccccc2\C1=N/O : 88.5
COc1cc2ncc(-c3ccccc3)nc2cc1OC : 96
CN(C)C[C@H]1CCn2c(c(C3=C(c4cn(C)c5ccccc45)C(=O)NC3=O)c3ccccc32)C1 : 97.8
CC(=O)O/N=C1\C(=C2\C(=O)Nc3cc(Br)ccc32)Nc2ccccc21 : 90.2

* * *

study target: SRC (human) (UniProt P12931)
Sequence (P12931 whole entry, looked up): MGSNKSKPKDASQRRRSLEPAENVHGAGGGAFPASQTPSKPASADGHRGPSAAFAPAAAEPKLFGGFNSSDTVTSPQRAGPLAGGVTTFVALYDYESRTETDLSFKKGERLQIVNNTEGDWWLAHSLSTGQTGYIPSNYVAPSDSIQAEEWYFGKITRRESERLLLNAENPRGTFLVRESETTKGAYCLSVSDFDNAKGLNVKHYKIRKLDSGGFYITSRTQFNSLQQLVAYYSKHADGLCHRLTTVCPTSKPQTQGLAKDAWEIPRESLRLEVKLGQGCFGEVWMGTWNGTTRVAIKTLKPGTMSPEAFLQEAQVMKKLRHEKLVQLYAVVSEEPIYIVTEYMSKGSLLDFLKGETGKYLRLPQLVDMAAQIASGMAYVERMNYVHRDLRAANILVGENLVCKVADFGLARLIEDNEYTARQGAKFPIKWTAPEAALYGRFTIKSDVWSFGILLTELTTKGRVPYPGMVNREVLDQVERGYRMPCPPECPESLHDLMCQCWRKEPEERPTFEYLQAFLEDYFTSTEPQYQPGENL
assay details: radiometric filter-binding kinase assay, Kinase HotSpot
experimental setup: compound 0.5 µM; ATP 10 µM
Returns: string. Value is 1.0 if measured residual activity is below 90%, and 0.0 if it is greater than or equal to it.

CC(C)[C@H](CO)Nc1nc(Nc2cc(N)cc(Cl)c2)c2ncn(C(C)C)c2n1 : 1.0
Cn1cnc2cc3c(Nc4cccc(Br)c4)ncnc3cc21 : 1.0
Cn1sc(=O)n(Cc2ccccc2)c1=O : 0.0
Nc1nccc(-c2c(-c3ccc(F)cc3)ncn2C2CCNCC2)n1 : 0.0
CCn1cnc2c(Nc3cccc(Cl)c3)nc(N[C@@H]3CCCC[C@@H]3N)nc21 : 1.0
O=C1NC(=O)C(c2cn(CCCO)c3ncccc23)=C1c1cnccn1 : 1.0
COc1cc2ncc(-c3ccccc3)nc2cc1OC : 0.0
Oc1ccc(Nc2nc(-c3ccc(Cl)cc3)cs2)cc1 : 0.0
O=C(CCCc1ccc(-c2ccccc2F)cc1)Nc1ccc(O)cc1 : 0.0
O=C1Nc2ccccc2/C1=C1\Nc2ccccc2\C1=N/O : 1.0
COc1ccc(CNC(=O)Nc2ncc([N+](=O)[O-])s2)cc1 : 0.0
COc1cc2ncnc(N3CCN(C(=O)Nc4ccc(Oc5ccccc5)cc4)CC3)c2cc1OC : 0.0
CN(C)C[C@H]1CCn2c(c(C3=C(c4cn(C)c5ccccc45)C(=O)NC3=O)c3ccccc32)C1 : 0.0
CC(C)c1nn(-c2c(Cl)cccc2Cl)c2nc(Cc3ccc(OCCO)cc3)nc(O)c12 : 1.0
O=C1Cc2c([nH]c3ccc(Br)cc23)-c2ccccc2N1 : 1.0
O=C1NC(=O)C(c2c[nH]c3ccccc23)=C1c1c[nH]c2ccccc12 : 0.0
CCN(CC)CCCCN1c2ccccc2Oc2ccc(Cl)cc21 : 0.0
O=C1NC(=O)/C(=C\c2ccc3nccnc3c2)S1 : 0.0

* * *

study target: ACVR1 (human)
assay details: radiometric filter-binding kinase assay, Kinase HotSpot
experimental setup: compound 0.5 µM; ATP 10 µM
In this section, each of the compounds is paired with its reported residual activity.
measurement type: residual activity (%)

COc1ccc(OC)c2c(=S)c3ccccc3[nH]c12 : 99.2
COc1cc2ncnc(N3CCN(C(=O)Nc4ccc(Oc5ccccc5)cc4)CC3)c2cc1OC : 100
O=C(O)/C=C/c1cc(Br)c(Br)c(Br)c1Br : 92.1
CC(C)[C@H](CO)Nc1nc(Nc2cc(N)cc(Cl)c2)c2ncn(C(C)C)c2n1 : 99.4
O=C(Nc1cccc(Nc2cc(Nc3cccc(C(F)(F)F)c3)ncn2)c1)C1CC1 : 103
O=C1Nc2ccccc2/C1=C1/Nc2ccccc2/C1=N\OCCC(O)CO (configuration not stated) : 199
O=C1NC(=O)/C(=C\c2ccc3nccnc3c2)S1 : 102
Nc1nccc(-c2c(-c3ccc(F)cc3)ncn2C2CCNCC2)n1 : 86.5
CN(C)C[C@H]1CCn2c(c(C3=C(c4cn(C)c5ccccc45)C(=O)NC3=O)c3ccccc32)C1 : 93.3
O=C(CCCc1ccc(-c2ccccc2F)cc1)Nc1ccc(O)cc1 : 95.2
O=C1NC(=O)C(c2c[nH]c3ccccc23)=C1c1c[nH]c2ccccc12 : 97.1
Nc1nnc2[nH]c3ccccc3nc1-2 : 94.3
Cn1nc2c3c(cccc31)C(=O)c1ccccc1-2 : 110
CCN(CC)CCCCN1c2ccccc2Oc2ccc(Cl)cc21 : 101
Cn1sc(=O)n(Cc2ccccc2)c1=O : 102
O=C1NC(=O)C(c2cn(CCCO)c3ncccc23)=C1c1cnccn1 : 97
CC(=O)O/N=C1\C(=C2\C(=O)Nc3cc(Br)ccc32)Nc2ccccc21 : 102
O=C1Nc2ccccc2/C1=C1\Nc2ccccc2\C1=N/O : 112
CN([C@@H](Cc1ccc(OS(=O)(=O)c2cccc3cnccc23)cc1)C(=O)N1CCN(c2ccccc2)CC1)S(=O)(=O)c1cccc2cnccc12 : 95
CC(C)c1nn(-c2c(Cl)cccc2Cl)c2nc(Cc3ccc(OCCO)cc3)nc(O)c12 : 94.7
COc1ccc(CNC(=O)Nc2ncc([N+](=O)[O-])s2)cc1 : 99.5
CCn1cnc2c(Nc3cccc(Cl)c3)nc(N[C@@H]3CCCC[C@@H]3N)nc21 : 92.7
O=C1Cc2c([nH]c3ccc(Br)cc23)-c2ccccc2N1 : 162
Cn1cnc2cc3c(Nc4cccc(Br)c4)ncnc3cc21 : 109
Oc1ccc(Nc2nc(-c3ccc(Cl)cc3)cs2)cc1 : 94.9
Cc1nc2cc3nc(-c4cccs4)cnc3cc2n1C : 99.3
COc1cc2ncc(-c3ccccc3)nc2cc1OC : 99.3

* * *

Entries and their residual activity
study target: PRKD1 (human)
assay details: radiometric filter-binding kinase assay, Kinase HotSpot
experimental setup: compound 0.5 µM; ATP 10 µM
measurement type: residual activity (%)

O=C1NC(=O)C(c2cn(CCCO)c3ncccc23)=C1c1cnccn1 : 107
Cn1sc(=O)n(Cc2ccccc2)c1=O : 101
O=C(Nc1cccc(Nc2cc(Nc3cccc(C(F)(F)F)c3)ncn2)c1)C1CC1 : 100
O=C(O)/C=C/c1cc(Br)c(Br)c(Br)c1Br : 88.9
Nc1nccc(-c2c(-c3ccc(F)cc3)ncn2C2CCNCC2)n1 : 54.6
Cc1nc2cc3nc(-c4cccs4)cnc3cc2n1C : 97.7
O=C(CCCc1ccc(-c2ccccc2F)cc1)Nc1ccc(O)cc1 : 98.4
Cn1cnc2cc3c(Nc4cccc(Br)c4)ncnc3cc21 : 99.4
CN(C)C[C@H]1CCn2c(c(C3=C(c4cn(C)c5ccccc45)C(=O)NC3=O)c3ccccc32)C1 : 101
COc1ccc(OC)c2c(=S)c3ccccc3[nH]c12 : 99.8
CN([C@@H](Cc1ccc(OS(=O)(=O)c2cccc3cnccc23)cc1)C(=O)N1CCN(c2ccccc2)CC1)S(=O)(=O)c1cccc2cnccc12 : 101

* * *

study target: ROS1 (human) (UniProt P08922)
Sequence (P08922 whole entry, looked up): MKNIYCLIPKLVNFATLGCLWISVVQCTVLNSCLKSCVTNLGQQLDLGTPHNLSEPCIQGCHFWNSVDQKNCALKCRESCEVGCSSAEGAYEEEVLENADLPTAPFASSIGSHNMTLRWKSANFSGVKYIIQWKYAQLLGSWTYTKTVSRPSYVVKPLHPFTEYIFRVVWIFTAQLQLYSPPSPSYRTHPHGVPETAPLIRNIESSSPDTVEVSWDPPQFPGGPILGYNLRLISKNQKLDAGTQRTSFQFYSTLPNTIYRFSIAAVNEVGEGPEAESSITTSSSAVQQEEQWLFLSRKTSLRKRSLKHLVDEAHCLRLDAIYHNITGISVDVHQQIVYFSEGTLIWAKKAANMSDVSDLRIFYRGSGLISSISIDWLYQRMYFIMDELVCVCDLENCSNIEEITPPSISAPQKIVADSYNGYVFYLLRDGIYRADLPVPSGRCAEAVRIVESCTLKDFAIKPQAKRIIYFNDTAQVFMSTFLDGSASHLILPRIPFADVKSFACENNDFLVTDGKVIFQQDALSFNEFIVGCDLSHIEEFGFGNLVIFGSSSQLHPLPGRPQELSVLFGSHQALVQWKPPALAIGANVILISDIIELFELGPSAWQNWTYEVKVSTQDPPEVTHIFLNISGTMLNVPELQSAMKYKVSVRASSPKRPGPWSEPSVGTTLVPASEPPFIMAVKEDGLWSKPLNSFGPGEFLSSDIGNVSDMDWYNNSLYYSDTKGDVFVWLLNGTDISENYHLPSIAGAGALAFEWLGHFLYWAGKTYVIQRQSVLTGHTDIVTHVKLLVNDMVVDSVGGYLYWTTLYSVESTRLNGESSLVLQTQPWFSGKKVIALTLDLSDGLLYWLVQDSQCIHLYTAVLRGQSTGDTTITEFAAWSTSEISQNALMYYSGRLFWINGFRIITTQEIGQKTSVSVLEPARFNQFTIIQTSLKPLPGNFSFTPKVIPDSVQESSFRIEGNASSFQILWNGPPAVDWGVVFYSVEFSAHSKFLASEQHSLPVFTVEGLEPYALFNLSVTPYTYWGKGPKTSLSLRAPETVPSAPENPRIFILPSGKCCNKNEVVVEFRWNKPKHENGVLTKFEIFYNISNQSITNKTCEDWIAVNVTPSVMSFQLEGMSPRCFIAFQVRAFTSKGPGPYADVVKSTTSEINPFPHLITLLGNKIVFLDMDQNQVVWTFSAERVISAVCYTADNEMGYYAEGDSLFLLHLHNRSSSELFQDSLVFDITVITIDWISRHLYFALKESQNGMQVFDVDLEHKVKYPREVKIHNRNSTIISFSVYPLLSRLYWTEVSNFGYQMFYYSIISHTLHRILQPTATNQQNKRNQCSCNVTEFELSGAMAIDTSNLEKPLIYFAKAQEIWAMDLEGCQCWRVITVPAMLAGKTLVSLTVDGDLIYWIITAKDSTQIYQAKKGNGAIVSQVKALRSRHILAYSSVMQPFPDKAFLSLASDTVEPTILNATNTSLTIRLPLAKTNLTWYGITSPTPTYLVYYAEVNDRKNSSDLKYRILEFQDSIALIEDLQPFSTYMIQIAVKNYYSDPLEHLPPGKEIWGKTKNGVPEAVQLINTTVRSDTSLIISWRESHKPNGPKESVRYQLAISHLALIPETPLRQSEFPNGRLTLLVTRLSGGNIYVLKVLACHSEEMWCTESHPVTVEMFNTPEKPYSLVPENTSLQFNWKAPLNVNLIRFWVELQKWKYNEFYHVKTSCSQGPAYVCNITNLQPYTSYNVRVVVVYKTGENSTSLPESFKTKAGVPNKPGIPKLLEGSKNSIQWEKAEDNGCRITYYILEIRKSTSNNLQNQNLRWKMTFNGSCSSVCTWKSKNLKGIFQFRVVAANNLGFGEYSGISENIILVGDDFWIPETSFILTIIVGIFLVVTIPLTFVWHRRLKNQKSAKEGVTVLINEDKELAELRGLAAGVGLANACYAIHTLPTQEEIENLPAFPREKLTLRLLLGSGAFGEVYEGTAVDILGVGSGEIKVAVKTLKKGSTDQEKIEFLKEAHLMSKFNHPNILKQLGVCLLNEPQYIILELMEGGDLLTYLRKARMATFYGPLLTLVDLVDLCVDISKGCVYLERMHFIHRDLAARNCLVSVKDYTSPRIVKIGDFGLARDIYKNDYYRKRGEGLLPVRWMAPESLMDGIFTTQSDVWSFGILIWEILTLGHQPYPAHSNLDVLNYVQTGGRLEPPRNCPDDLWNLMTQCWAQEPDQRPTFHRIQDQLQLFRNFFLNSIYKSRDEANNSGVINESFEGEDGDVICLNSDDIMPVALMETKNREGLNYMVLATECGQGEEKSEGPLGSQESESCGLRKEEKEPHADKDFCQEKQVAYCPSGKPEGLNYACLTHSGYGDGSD
assay details: radiometric filter-binding kinase assay, Kinase HotSpot
experimental setup: compound 0.5 µM; ATP 10 µM
measurement type: residual activity

O=C(Nc1cccc(Nc2cc(Nc3cccc(C(F)(F)F)c3)ncn2)c1)C1CC1 : 93.5%
Cn1nc2c3c(cccc31)C(=O)c1ccccc1-2 : 104%
Cc1nc2cc3nc(-c4cccs4)cnc3cc2n1C : 97.9%
O=C1NC(=O)/C(=C\c2ccc3nccnc3c2)S1 : 92.3%
CC(C)[C@H](CO)Nc1nc(Nc2cc(N)cc(Cl)c2)c2ncn(C(C)C)c2n1 : 96.5%
COc1ccc(CNC(=O)Nc2ncc([N+](=O)[O-])s2)cc1 : 100%
COc1cc2ncnc(N3CCN(C(=O)Nc4ccc(Oc5ccccc5)cc4)CC3)c2cc1OC : 89.7%
Oc1ccc(Nc2nc(-c3ccc(Cl)cc3)cs2)cc1 : 96.9%
CC(C)c1nn(-c2c(Cl)cccc2Cl)c2nc(Cc3ccc(OCCO)cc3)nc(O)c12 : 105%
Nc1nnc2[nH]c3ccccc3nc1-2 : 106%
CC(=O)O/N=C1\C(=C2\C(=O)Nc3cc(Br)ccc32)Nc2ccccc21 : 105%
